# System: HS 578T breast
# PROTOCOL DESCRIPTION: NCI tumour cell line growth inhibition, 48 h
MEASURE: TGI

- COMPOUND: "Cc1ccc2c(c1)C(=O)c1c-2n(CCCBr)c(=O)c2cc([N+](=O)[O-])ccc12"
  TGI: "> 100 µM"
- COMPOUND: "O=C1Nc2ccccc2/C1=C/c1c(Cl)[nH]c2ccc(O)cc12"
  TGI: "> 100 µM"

Q: Quick one: TGI for CN(C)CC1CCCCCC(CN(C)C)C1=O (stereo not drawn) ?
Ans: > 64.3 µM

====

# System: NCI-H522 lung
# PROTOCOL DESCRIPTION: NCI tumour cell line growth inhibition, 48 h
MEASURE: TGI

Known TGI results, listed for orientation:
- MOLECULE: "N#Cc1[nH]c(=O)n(-c2cccc3ccccc23)c1N"
  TESTED ON: "NCI-H522 lung"
  TGI: "> 10 µM"
- MOLECULE: "COc1cc(/C=C2\\C(=O)N(Cc3ccccc3)C(c3ccccc3)S2(=O)=O)cc(OC)c1OC (centres undefined)"
  TESTED ON: "NCI-H522 lung"
  TGI: "> 100 µM"
- MOLECULE: "COc1cc(C2CC(c3ccc(N(C)C)cc3)=NN2C(C)=O)cc(OC)c1OC (centres undefined)"
  TESTED ON: "NCI-H522 lung"
  TGI: "> 27.1 µM"

# ---- query molecule ----
Q: Quick one: TGI for O=C1NC(=O)C(COCc2ccccc2)C2=C1SCCC2 (centres undefined) ?
Ans: > 100 µM

====

# System: ACHN renal
# PROTOCOL DESCRIPTION: NCI tumour cell line growth inhibition, 48 h
MEASURE: GI50

Known GI50 results, listed for orientation:
- COMPOUND: "Nc1cc(N)c2nc(-c3ccccc3)c(NCc3ccc(F)cc3)nc2c1"
  GI50: "1710 nM"
- COMPOUND: "CC(C)(C#N)c1cc(C(=O)Nc2cc(Nc3ncccc3-c3ncnc4nc[nH]c34)ccc2F)cc(C(F)(F)F)c1"
  GI50: "1200 nM"
- COMPOUND: "CC(=O)O[C@H]1CC[C@@]2(C)[C@@H](CC[C@@H]3[C@@H]2CC[C@]2(C)C=C(C=O)C[C@@H]32)C1"
  GI50: "20200 nM"

Q: Quick one: GI50 for CC(C)C[C@H](NC(=O)[C@@H](O)[C@H](N)Cc1ccc([N+](=O)[O-])cc1)C(=O)O ?
Ans: > 25000 nM

Q: Quick one: GI50 for CCN(CC)c1ccc(C(=N)c2ccc(N(C)C)cc2)cc1 ?
Ans: 2340 nM

Q: Quick one: GI50 for C/C=C/C=C/CCCCCCCCCCCCCC1(OC)C=CC(CC(=O)OC)OO1 (stereo unspecified) ?
Ans: 6000 nM

====

# System: PC-3 prostate
# PROTOCOL DESCRIPTION: NCI tumour cell line growth inhibition, 48 h
TGI: recorded values
Enter your answer as a number in µM; do not include the unit.

Known TGI results, listed for orientation:
- COMPOUND: "CCOC(=O)C1(C/C=C\\CBr)CCCCCCCCCCC1=O (configuration not stated)"
  TGI (µM): 25.1
- COMPOUND: "O=C(COc1cccc(/C=C2\\COc3ccc(Cl)cc3C2=O)c1)c1ccc(Cl)cc1"
  TGI (µM): 28.9
- COMPOUND: "C/C=C/[C@@H]1OC(=O)C2=C[C@@H](O)[C@@H](/C=C/C)O[C@H]21"
  TGI (µM): 28.2
- COMPOUND: "COc1cc(Oc2nc3c(N)cc(C(F)(F)F)cc3nc2-c2ccccc2)cc(OC)c1OC"
  TGI (µM): 29.5
- COMPOUND: "CCCCN(CCCC)c1ccc(C(=NC(C)CCCN(CC)CC)c2ccc(N(C)C)cc2)cc1 (configuration not stated)"
  TGI (µM): 1.93
- COMPOUND: "CCCOC(=O)CCn1c(SC)nc2[nH]cc(-c3ccccc3)c2c1=O"
  TGI (µM): 50.1
- COMPOUND: "COc1cc2c3c(n(C)c(=O)c2cc1OC)-c1cc2c(cc1/C3=C\\C(N)CN)OCO2 (configuration not stated)"
  TGI (µM): 20.5
- COMPOUND: "Nc1n[nH]c2ccc([C@@H]3Nc4ccc5[nH]ncc5c4[C@H]4C5C=CC(C5)[C@@H]34)cc12 (some centres not stated)"
  TGI (µM): 22.7

Q: For PC-3 prostate, provide TGI of CSc1ccccc1C#Cc1ccccc1C#CCCCCO please.
Ans: 38

Q: For PC-3 prostate, provide TGI of O=C(OCCBr)c1ccc(Cl)c([N+](=O)[O-])c1 please.
Ans: 12.8

Q: For PC-3 prostate, provide TGI of C=C1CCC2C3(C)COC(c4ccccc4Br)OC3CCC2(C)C1C/C=C1/C(=O)OCC1OC(C)=O (configuration not stated) please.
Ans: 3.76
